meta.source: patent US20250270319A1

Biological target: T1, recombinant human CD33 protein (Sino Biologicals) (human, UniProt P20138 18-259)
T1 construct: Bought protein; also called recombinant CD33
T1 sequence (P20138 18-259 limits assumed): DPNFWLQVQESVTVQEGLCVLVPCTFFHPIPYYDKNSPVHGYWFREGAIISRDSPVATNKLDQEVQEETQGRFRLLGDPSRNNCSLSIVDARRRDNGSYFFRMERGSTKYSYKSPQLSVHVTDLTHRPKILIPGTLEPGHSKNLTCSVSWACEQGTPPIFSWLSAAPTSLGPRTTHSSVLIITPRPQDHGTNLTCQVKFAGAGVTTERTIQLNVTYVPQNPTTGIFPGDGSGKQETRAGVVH
Experiment: BLI (ForteBio), antibody on anti-human Fc sensor, CD33 10 nM
Outcome Measure: kon (M⁻¹ s⁻¹)
One number for each entry, in M⁻¹ s⁻¹.

Past entries and their recorded results:
anti-CD33 antibody 6C7H18 (antibody, V domains shown, VH/VL only) VH: EVQLVESGGGLVQPGGSLRLSCAGSGFTFSNYHMNWVRQAPGKGLEWVAEIRLKSNNYVTNYAASVKGRFTISRDDSKNSVYLQMNSLKTEDTGVYYCTRAGYYVPFAYWGQGTLVTVSS VL: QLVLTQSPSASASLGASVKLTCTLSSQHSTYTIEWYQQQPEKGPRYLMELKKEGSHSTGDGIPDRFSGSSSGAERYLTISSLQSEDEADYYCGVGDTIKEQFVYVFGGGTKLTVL
1.05e+06
anti-CD33 antibody 6C7H13 (antibody, V domains shown, VH/VL only) VH: EVQLVESGGGLVQPGGSLRLSCAGSGFTFSNYFMNWVRQAPGKGLEWVAEIRLKSNNYVTNYAASVKGRFTISRDDSKNSVYLQMNSLKTEDTGVYYCTRAGYYVPFAYWGQGTLVTVSS VL: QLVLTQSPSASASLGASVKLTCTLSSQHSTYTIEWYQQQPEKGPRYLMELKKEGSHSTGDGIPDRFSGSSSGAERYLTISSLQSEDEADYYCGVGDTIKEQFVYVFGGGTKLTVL
801000
anti-CD33 antibody 6C7H23 (antibody, V domains shown, VH/VL only) VH: EVQLVESGGGLVQPGGSLRLSCAGSGFTFSNYVMNWVRQAPGKGLEWVAEIRLKSNNYVTNYAASVKGRFTISRDDSKNSVYLQMNSLKTEDTGVYYCTRAGYYVPFAYWGQGTLVTVSS VL: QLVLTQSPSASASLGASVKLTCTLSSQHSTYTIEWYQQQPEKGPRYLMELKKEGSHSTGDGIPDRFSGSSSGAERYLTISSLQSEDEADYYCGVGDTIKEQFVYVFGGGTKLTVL
1.24e+06
anti-CD33 antibody 6C7H15 (antibody, V domains shown, VH/VL only) VH: EVQLVESGGGLVQPGGSLRLSCAGSGFTFSNYSMNWVRQAPGKGLEWVAEIRLKSNNYVTNYAASVKGRFTISRDDSKNSVYLQMNSLKTEDTGVYYCTRAGYYVPFAYWGQGTLVTVSS VL: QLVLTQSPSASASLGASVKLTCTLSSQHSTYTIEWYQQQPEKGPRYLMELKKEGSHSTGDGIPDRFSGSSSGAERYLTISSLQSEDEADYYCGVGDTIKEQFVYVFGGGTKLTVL
801000

Read the next record carefully.
-- ask Form field: reported kon of anti-CD33 antibody 6C7H8 (antibody, IgG1, V domains shown, VH/VL only; also called 6C7H8 IgG1; parental antibody) VH: EVQLVESGGGLVQPGGSLRLSCAGSGFTFSNYCMNWVRQAPGKGLEWVAEIRLKSNNYVTNYAASVKGRFTISRDDSKNSVYLQMNSLKTEDTGVYYCTRAGYYVPFAYWGQGTLVTVSS VL: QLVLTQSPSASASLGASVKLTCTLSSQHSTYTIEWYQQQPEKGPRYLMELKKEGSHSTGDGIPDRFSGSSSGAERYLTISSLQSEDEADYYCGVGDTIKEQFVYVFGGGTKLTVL
-- reply 572000
